experiment: E. coli PNP enzyme activity with substrate MeP-dR; conditions: substrate MeP-dR; percent of wild-type activity
Listing of recorded Percent of Control Activity, MeP-dR by entry.
Form entry: value (%) — number only.

1) E182Q (protein, UniProt P0ABP8 2-239, looked up, variant E182Q) Purine nucleoside …: ATPHINAEMGDFADVVLMPGDPLRAKYIAETFLEDAREVNNVRGMLGFTGTYKGRKISVMGHGMGIPSCSIYTKELITDFGVKKIIRVGSCGAVLPHVKLRDVVIGMGACTDSKVNRIRFKDHDFAAIADFDMVRNAVDAAKALGIDARVGNLFSADLFYSPDGEMFDVMEKYGILGVEMQAAGIYGVAAEFGAKALTICTVSDHIRTHEQTTAAERQTTFNDMIKIALESVLLGDKE | 0.6

// next item, Percent of Control Activity, MeP-dR requested
query: Consider the molecule shown here: E180T (protein, UniProt P0ABP8 2-239, looked up, variant E180T) Purine nucleoside …: ATPHINAEMGDFADVVLMPGDPLRAKYIAETFLEDAREVNNVRGMLGFTGTYKGRKISVMGHGMGIPSCSIYTKELITDFGVKKIIRVGSCGAVLPHVKLRDVVIGMGACTDSKVNRIRFKDHDFAAIADFDMVRNAVDAAKALGIDARVGNLFSADLFYSPDGEMFDVMEKYGILGVTMEAAGIYGVAAEFGAKALTICTVSDHIRTHEQTTAAERQTTFNDMIKIALESVLLGDKE What is its recorded Percent of Control Activity, MeP-dR?
result: 0.06

Where do these numbers come from? They come from patent US7488598B2.
